Where do the numbers come from? From the DeepSol protein solubility set.

- Measurement description: soluble on expression in E. coli; label from the status in PepcDB or PDB records
Reported metric: soluble on expression in E. coli

>>> experimental_value("MLHAKIETLGVDPQNGSVVVLLRTENDKLLPIVIGPLEAHHIVVALQGEKPPRPLTPDLLLSVMEMLQAKLKRVEIVDLRDGTFYARLILEHRGIELEVDARPSDAMALALRAGAPILVAEEVVEKAGVEEANIRPHGAAEA")
"soluble"
>>> experimental_value("MSLAYFGIYDGHGGAEASLYAKEHLMNTIVSQKLFWSENDDDVLKSIREGYIQTHYSMWREQEKWPKTSSGLPSTAGTTASIAFIRRGKIYIGHVGDSGIVLGYQNDKESANDGRWVATPLTEDHKPESYAEKMRIMSCGGKVVTKSGVPRVVWNRPRIGHKGPVRRSTPIDEIPFLAVARSLGDLWSYNSAMDEFVVSPVPDVSVIEIDPKKYRCLIFGSDGLWNVMSPKNAVDIVRNAEMENVRIALEGGNEWKNPSKLLVNEALDRWSRSNMKADNTSVVIIMLDPEGHHHHHH")
"not soluble"
>>> experimental_value("MHDEQFCVGYNFLEAEDTFREDGLEPVTLAIHGTPEVLQLLGNKPLNWDGPISFGLFVDFHSQKALNYISMLHKCDAAFKRQMTVHFAFRISPSQSECPMIQVLGYQDCATFLQKSKQLLEEIEDSFQIYPINLMRNIARRGAKSDLHLIIDTDMMMSTNFAKMVKPIANRMIDGKNKQVLVVRRFETNENELPMSFGDLEEGIENHKTFQFHHKFFFVGHQIPNLMEWFERSHASNDVVAWEIPYTGNDWEVQIILHRNDPYNVEYFPSRVKDMQSLIYKLCRANYTFNLLSHVFNVHKGIKEDDTMYSKVVTAHTKRQGRLRTLSRYVTEIDRKYPDTMKRCGQFLL")
"not soluble"
>>> experimental_value("GMDYNQTVLSHLQKFWKHHDIKGFTWTLGRIVEELPDFQVFQVIPNHEDEPWVYVSSGIGQFLGQEFFIISPFETPEHIETLAMLASASMHYPDQFQLGKTVNIGRPWVEQSSFRHFLISLPYPYGQELEYMDNVRFFWLLPITQTERLFLNTHSVEELETKFDEAGIDYLDINRASTVWQAG")
"soluble"
>>> experimental_value("MVRANKRNEALRIESALLNKIAMLGTEKTAEAVGVDKSQISRWKRDWIPKFSMLLAVLEWGVVDDDMARLARQVAAILTNKKRPAATERSEQIQMEF")
"soluble"
>>> experimental_value("MVVFGTTFFNFDSFIGKTDSIEIIGKSVFPYCYHNILPLLNDSGRYSLGDARRPLHETAVLVEDVVHTQLINLLQQAAEVSQLRGARVITPEDLLFLMRKDKKKLRRLLKYMFIRDYKSKIVKGIDEDDLLEDKLSGSNNANKRQKIAQDFLNSIDQTGELLAMFEDDEIDEVKQERMERAERQTRIMDSAQYAEFCESRQLSFSKKASKFRDWLDCSSMEIKPNVVAMEILAYLAYETVAQLVDLALLVRQDMVTKAGDPFSHAISATFIQYHNSAESTAACGVEAHSDAIQPCHIREAIRRYSHRIGPLSPFTNAYRRNGMAFLAC")
"not soluble"
>>> experimental_value("NTRGMALFADGGLIATKPYSASGSYINKMSDYCASCAYQVKLKSGEKACPLNSLYWRFMLKHRDRLANNPRIGMLYKTWDKMTSDSQQAILSTADAYLSQIESL")
"not soluble"
>>> experimental_value("MSQFTLYKNKDKSSAKTYPYFVDVQSDLLDNLNTRLVIPLTPIELLDKKAPSHLCPTIHIDEGDFIMLTQQMTSVPVKILSEPVNELSTFRNEIIAAIDFLITGI")
"soluble"
